- assay target: hFXR (Homo sapiens, UniProt Q96RI1)
- Sequence (Q96RI1 1-486): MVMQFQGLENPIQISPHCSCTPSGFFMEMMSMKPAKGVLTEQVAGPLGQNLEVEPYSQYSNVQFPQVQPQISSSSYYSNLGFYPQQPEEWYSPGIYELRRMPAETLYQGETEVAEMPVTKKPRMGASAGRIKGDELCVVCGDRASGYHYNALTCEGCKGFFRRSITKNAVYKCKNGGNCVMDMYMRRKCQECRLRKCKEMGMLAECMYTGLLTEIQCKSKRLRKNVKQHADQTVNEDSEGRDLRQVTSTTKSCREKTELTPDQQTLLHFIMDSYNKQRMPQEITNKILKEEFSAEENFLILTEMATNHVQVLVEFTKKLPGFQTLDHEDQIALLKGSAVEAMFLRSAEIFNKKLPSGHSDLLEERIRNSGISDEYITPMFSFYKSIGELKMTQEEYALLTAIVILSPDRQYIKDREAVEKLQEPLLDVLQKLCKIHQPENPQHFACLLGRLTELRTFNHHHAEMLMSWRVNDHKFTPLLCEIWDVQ
- Sequence (P19793 1-462 partner): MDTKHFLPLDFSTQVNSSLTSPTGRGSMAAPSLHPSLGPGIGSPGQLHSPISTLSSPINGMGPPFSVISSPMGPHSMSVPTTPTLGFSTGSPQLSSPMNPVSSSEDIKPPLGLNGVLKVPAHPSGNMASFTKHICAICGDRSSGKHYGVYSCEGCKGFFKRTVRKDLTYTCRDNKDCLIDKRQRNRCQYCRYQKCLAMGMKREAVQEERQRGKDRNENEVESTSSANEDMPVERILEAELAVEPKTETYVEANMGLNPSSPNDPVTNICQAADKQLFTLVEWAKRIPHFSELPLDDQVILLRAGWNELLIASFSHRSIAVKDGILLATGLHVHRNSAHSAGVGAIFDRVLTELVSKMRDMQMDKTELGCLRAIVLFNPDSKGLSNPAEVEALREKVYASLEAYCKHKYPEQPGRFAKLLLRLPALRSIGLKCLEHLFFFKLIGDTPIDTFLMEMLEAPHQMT
- method description: In Vitro FXR Assay (TK): TK-ECRE-luc reporter in transfected CV-1 cells
- experimental conditions: 18 hrs incubation, luminescence
reported metric: EC50

Provide EC50 values for the following items, in order.
1. COc1ccc(C23CCC(CN(c4cc(-c5cc(C6CC6)on5)ccn4)C(=O)[C@H]4CC[C@H](OC(=O)N5CC(O)C5)CC4)(CC2)CC3)cc1C [Compound 4.26]
2. COc1ccc(C23CCC(CN(c4cc(-c5cnn(C6(C)CCC6)c5)c(F)cn4)C(=O)[C@H]4CC[C@H](OC(=O)N5CC(O)C5)CC4)(CC2)CC3)cc1C [Compound 25.18]
3. COc1ccc(C23CCC(CN(c4cc(-c5cnn(C6CCC6)c5)ccn4)C(=O)[C@H]4CC[C@H](OC(=O)N5CC(CO)C5)CC4)(CC2)CC3)cc1C [Compound 23.10]

1: ≤ 50 nM; 2: ≤ 50 nM; 3: ≤ 50 nM
